# Tested on: NCI-H650 (Lung Adenocarcinoma)
# assay.text: combination Emax (second highest fraction inhibited in the dose matrix, 72 h); higher = more inhibition; extreme values may be limits of the assay
assay.readout: combination Emax
Answers are plain numbers.

Please review the following examples before continuing.
[[record]]
compound = "CN(CCO)CC[C@H](CSc1ccccc1)Nc1ccc(S(=O)(=O)NC(=O)c2ccc(N3CCC([C@@H](O)c4ccccc4-c4ccc(Cl)cc4)CC3)cc2)cc1S(=O)(=O)C(F)(F)F [AZD4320] + Cc1cc2ncnn2cc1Nc1ncc2c(n1)n(C1CCOCC1)c(=O)n2C [AZD7648] (first compound max 1 µM, 7x7, partner max 10 µM)"
tested_system = "NCI-H650 (Lung Adenocarcinoma)"
recorded_value = 0.134

[[record]]
compound = "C=CCn1c(=O)c2cnc(Nc3ccc(N4CCN(C)CC4)cc3)nc2n1-c1cccc(C(C)(C)O)n1 [AZD1775] + C1CN(CCC1(C(=O)N[C@@H](CCO)C2=CC=C(C=C2)Cl)N)C3=NC=NC4=C3C=CN4 [Capivasertib] (first compound max 3 µM, partner max 3 µM)"
tested_system = "NCI-H650 (Lung Adenocarcinoma)"
recorded_value = 0.786

[[record]]
compound = "CN(CCO)CC[C@H](CSc1ccccc1)Nc1ccc(S(=O)(=O)NC(=O)c2ccc(N3CCC([C@@H](O)c4ccccc4-c4ccc(Cl)cc4)CC3)cc2)cc1S(=O)(=O)C(F)(F)F [AZD4320] + C=CCn1c(=O)c2cnc(Nc3ccc(N4CCN(C)CC4)cc3)nc2n1-c1cccc(C(C)(C)O)n1 [AZD1775] (first compound max 1 µM, partner max 1 µM)"
tested_system = "NCI-H650 (Lung Adenocarcinoma)"
recorded_value = 0.564


Below is a list of compounds. For each, state its recorded combination Emax.
1. Cc1c2c(nn1C)CSCc1cc(n(C)n1)CSc1cc(c3ccccc3c1)OCCCc1c(C(=O)O)n(C)c3c-2c(Cl)ccc13 [AZD5991] + CN(C)CCCOc1ccc(-c2ccc3ncc4c(c3c2)n(C2CCOCC2)c(=O)n4C)cn1 [AZD0156] (first compound max 1 µM, 7x7, partner max 1 µM)
2. NC1(C(=O)N[C@@H](CCO)c2ccc(Cl)cc2)CCN(c2ncnc3[nH]ccc23)CC1 [Capivasertib] + C[C@@H]1COCCN1C2=NC(=NC(=C2)C3(CC3)[S@](=N)(=O)C)C4=C5C=CNC5=NC=C4 [AZD6738] (first compound max 10 µM, 7x7, partner max 10 µM)

0.272
0.406

---

Answer each item with its documented Bliss excess.
# Test system: OE33 (Esophageal Adenocarcinoma)
# assay.text: Bliss excess, mean over the matrix (fraction); higher = more synergy
Answers are plain numbers.

[[record]]
compound = "Cc1cc2ncnn2cc1Nc1ncc2c(n1)n(C1CCOCC1)c(=O)n2C [AZD7648] + O=C(c1cc(Cc2n[nH]c(=O)c3ccccc23)ccc1F)N1CCN(C(=O)C2CC2)CC1 [Olaparib] (first compound max 10 µM, 7x7, partner max 10 µM)"
tested_system = "OE33 (Esophageal Adenocarcinoma)"
recorded_value = -0.0359


Which Bliss excess is reported for this compound? Cc1cc2ncnn2cc1Nc1ncc2c(n1)n(C1CCOCC1)c(=O)n2C [AZD7648] + CN(C)CCCOc1ccc(-c2ccc3ncc4c(c3c2)n(C2CCOCC2)c(=O)n4C)cn1 [AZD0156] (first compound max 10 µM, 7x7, partner max 1 µM)
0.0005

---

# System: MV-4-11 (Acute Myeloid Leukemia)
# assay.text: Bliss excess, mean over the matrix (fraction); higher = more synergy
assay.readout: Bliss excess
Numbers only.

[[record]]
compound = "O=C(c1cc(Cc2n[nH]c(=O)c3ccccc23)ccc1F)N1CCN(C(=O)C2CC2)CC1 [Olaparib] + COc1nnc2ccc(N3CCC(c4ccc(OCCN5CCN(C)C(=O)[C@H]5C)cc4)CC3)nn12 [AZD5153] (first compound max 10 µM, 7x7, partner max 1 µM)"
recorded_value = 0.008


Query (compound): COc1nnc2ccc(N3CCC(c4ccc(OCCN5CCN(C)C(=O)[C@H]5C)cc4)CC3)nn12 [AZD5153] + CCN(CCO)CCCOc1ccc2c(Nc3cc(CC(=O)Nc4cccc(F)c4)[nH]n3)ncnc2c1 [AZD2811] (first compound max 1 µM, 7x7, partner max 1 µM) ; field requested: Bliss excess
-0.0185

---

For each entry below, report its combination Emax value.
# Test system: NCI-H1838 (Lung Adenocarcinoma)
# assay.text: combination Emax (second highest fraction inhibited in the dose matrix, 72 h); higher = more inhibition; extreme values may be limits of the assay
Give bare numbers.

[[record]]
molecule = "COc1cccc(OCCCN)c1-c1cc(Nc2cnc(C#N)cn2)n[nH]1 [Prexasertib] + O=C(c1cc(Cc2n[nH]c(=O)c3ccccc23)ccc1F)N1CCN(C(=O)C2CC2)CC1 [Olaparib] (first compound max 1 µM, 7x7, partner max 10 µM)"
recorded_value = 0.46


We next turn to a different molecule, shown below.
Value lookup for combination Emax; key = CCN(CCO)CCCOc1ccc2c(Nc3cc(CC(=O)Nc4cccc(F)c4)[nH]n3)ncnc2c1 [AZD2811] + O=C(c1cc(Cc2n[nH]c(=O)c3ccccc23)ccc1F)N1CCN(C(=O)C2CC2)CC1 [Olaparib] (first compound max 1 µM, 7x7, partner max 10 µM)
0.275

---

# Test system: NCI-H1092 (Small Cell Lung Carcinoma)
# assay.text: Bliss excess, mean over the matrix (fraction); higher = more synergy
assay.readout: Bliss excess

Below are worked cases with known answers.
[[record]]
molecule = "CN(CCO)CC[C@H](CSc1ccccc1)Nc1ccc(S(=O)(=O)NC(=O)c2ccc(N3CCC([C@@H](O)c4ccccc4-c4ccc(Cl)cc4)CC3)cc2)cc1S(=O)(=O)C(F)(F)F [AZD4320] + C1CN(CCC1(C(=O)N[C@@H](CCO)C2=CC=C(C=C2)Cl)N)C3=NC=NC4=C3C=CN4 [Capivasertib] (first compound max 1 µM, 7x7, partner max 3 µM)"
recorded_value = -0.0476

[[record]]
molecule = "Cn1cnc2c(F)c(Nc3ccc(Br)cc3Cl)c(C(=O)NOCCO)cc21 [Selumetinib] + CC(C)n1c(=O)n(C)c2cnc3cc(F)c(-c4ccc(OCCCN5CCCCC5)nc4)cc3c21 [AZD1390] (first compound max 10 µM, 7x7, partner max 0.3 µM)"
recorded_value = -0.0468


Attention now turns to another entry.
I would be grateful if you could share the reported Bliss excess for CC1(C)CCC(CN2CCN(c3ccc(C(=O)NS(=O)(=O)c4ccc(NCC5CCOCC5)c([N+](=O)[O-])c4)c(Oc4cnc5[nH]ccc5c4)c3)CC2)=C(c2ccc(Cl)cc2)C1 [Venetoclax] + COc1cc(Nc2ncc3c(n2)-c2ccc(Cl)cc2C(c2c(F)cccc2OC)=NC3)ccc1C(=O)O [Alisertib] (first compound max 1 µM, 7x7, partner max 10 µM) .
0.294

---

# Test system: OACM5-1 (Esophageal Adenocarcinoma)
# assay.text: combination Emax (second highest fraction inhibited in the dose matrix, 72 h); higher = more inhibition; extreme values may be limits of the assay
assay.readout: combination Emax
Give bare numbers.

# annotated cases, reported combination Emax shown
[[record]]
compound = "COc1nnc2ccc(N3CCC(c4ccc(OCCN5CCN(C)C(=O)[C@H]5C)cc4)CC3)nn12 [AZD5153] + C[C@@H]1COCCN1C2=NC(=NC(=C2)C3(CC3)[S@](=N)(=O)C)C4=C5C=CNC5=NC=C4 [AZD6738] (first compound max 1 µM, 7x7, partner max 10 µM)"
recorded_value = 0.886

[[record]]
compound = "CCc1c2c(nc3ccc(O)cc13)-c1cc3c(c(=O)n1C2)COC(=O)[C@]3(O)CC [SN-38] + CN(C)CCCOc1ccc(-c2ccc3ncc4c(c3c2)n(C2CCOCC2)c(=O)n4C)cn1 [AZD0156] (first compound max 0.3 µM, 7x7, partner max 1 µM)"
recorded_value = 0.763


Please give combination Emax, item by item, for the list that follows.
1. Cn1cnc2c(F)c(Nc3ccc(Br)cc3Cl)c(C(=O)NOCCO)cc21 [Selumetinib] + CC(C)n1c(=O)n(C)c2cnc3cc(F)c(-c4ccc(OCCCN5CCCCC5)nc4)cc3c21 [AZD1390] (first compound max 10 µM, 7x7, partner max 0.3 µM)
2. Cc1nc(Nc2ncc(C(=O)Nc3c(C)cccc3Cl)s2)cc(N2CCN(CCO)CC2)n1 [Dasatinib] + CC(=O)Nc1cccc(-n2c(=O)n(C3CC3)c(=O)c3c(Nc4ccc(I)cc4F)n(C)c(=O)c(C)c32)c1 [Trametinib] (first compound max 2 µM, 7x7, partner max 1 µM)
3. Cc1c2c(nn1C)CSCc1cc(n(C)n1)CSc1cc(c3ccccc3c1)OCCCc1c(C(=O)O)n(C)c3c-2c(Cl)ccc13 [AZD5991] + Cn1cnc2c(F)c(Nc3ccc(Br)cc3Cl)c(C(=O)NOCCO)cc21 [Selumetinib] (first compound max 1 µM, 7x7, partner max 3 µM)
4. NC1(C(=O)N[C@@H](CCO)c2ccc(Cl)cc2)CCN(c2ncnc3[nH]ccc23)CC1 [Capivasertib] + COc1nnc2ccc(N3CCC(c4ccc(OCCN5CCN(C)C(=O)[C@H]5C)cc4)CC3)nn12 [AZD5153] (first compound max 10 µM, 7x7, partner max 1 µM)
5. CC(=O)c1c(C)c2cnc(Nc3ccc(N4CCNCC4)cn3)nc2n(C2CCCC2)c1=O [Palbociclib] + CC1(C)CCC(CN2CCN(c3ccc(C(=O)NS(=O)(=O)c4ccc(NCC5CCOCC5)c([N+](=O)[O-])c4)c(Oc4cnc5[nH]ccc5c4)c3)CC2)=C(c2ccc(Cl)cc2)C1 [Venetoclax] (first compound max 10 µM, 7x7, partner max 1 µM)

[0.209, 0.417, 0.94, 0.805, 0.479]
